For each record, write down the corresponding phenotypic distance.
test system: E31 (patient-derived glioblastoma stem cells of proneural subtype); assay: phenotypic distance (Euclidean, principal components) from DMSO controls (arbitrary units); higher = stronger morphological change; details: 333.3 nM; exposure time: 72 h;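 note: cell Painting imaging in 384-well plates, CellProfiler features reduced to at least 20 principal components, Euclidean distance versus same-plate DMSO vehicle wells (0.1% v/v), median over six images per well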
Structures can show the parent of a compound that is named as a salt.
Numbers only.

Guide cases for phenotypic distance, answers given:
# compound, phenotypic distance
data = [
    ("COc1cc2ncnc(Nc3cccc(Br)c3)c2cc1OC", 1.01),
    ("Nc1ccn([C@@H]2O[C@H](CO)[C@@H](O)[C@@H]2O)c(=O)n1", 3.48),
    ("NC(=O)c1cccc2cn(-c3ccc([C@@H]4CCCNC4)cc3)nc12", 0.875),
    ("Cc1cc(Nc2cc(N3CCN(C)CC3)nc(Sc3ccc(NC(=O)C4CC4)cc3)n2)n[nH]1", 2.58),
    ("NCCCP(=O)(O)O", 0.824),
    ("CN(c1nccc(=O)[nH]1)C1CCN(c2nc3ccccc3n2Cc2ccc(F)cc2)CC1", 0.814),
    ("CO[C@H]1C(=O)[C@]2(C)[C@@H](OC)C[C@H]3OC[C@@]3(OC(C)=O)[C@H]2[C@H](OC(=O)c2ccccc2)[C@]2(O)C[C@H](OC(=O)[C@H](O)[C@@H](NC(=O)OC(C)(C)C)c3ccccc3)C(C)=C1C2(C)C", 4.56),
    ("CC(C)C[C@H](NC(=O)[C@H](CCc1ccccc1)NC(=O)CN1CCOCC1)C(=O)N[C@@H](Cc1ccccc1)C(=O)N[C@@H](CC(C)C)C(=O)[C@@]1(C)CO1", 9.53),
]

Consider the following items and state reported phenotypic distance for each.
1. CC(C)C[C@H]1C(=O)N2CCC[C@H]2[C@]2(O)O[C@](NC(=O)[C@@H]3C=C4c5cccc6[nH]c(Br)c(c56)C[C@H]4N(C)C3)(C(C)C)C(=O)N12 [Bromocryptine mesylate]
2. Oc1c(Cl)cc(Cl)c(Cl)c1Cc1c(O)c(Cl)cc(Cl)c1Cl
3. O=C(CCBr)N1CCN(C(=O)CCBr)CC1
4. C#C[C@]1(O)CC[C@H]2[C@@H]3CCc4cc(OC5CCCC5)ccc4[C@H]3CC[C@@]21C
5. CCCCCC[C@H]1C(=O)O[C@H](C)[C@H](NC(=O)c2cccc(NC=O)c2O)C(=O)O[C@@H](C)[C@@H]1OC(=O)CC(C)C [Antimycin A]
6. CC(=O)OC[C@H]1O[C@@H]([S-])[C@H](OC(C)=O)[C@@H](OC(C)=O)[C@@H]1OC(C)=O.CCP(CC)CC.[Au+]
7. Cc1c(-c2ccc(-c3ccccc3F)cc2)nc2ccc(F)cc2c1C(=O)O [Brequinar sodium salt hydrate]

Response:
1. 0.658
2. 1.39
3. 0.574
4. 0.698
5. 2
6. 1.16
7. 2.59

Hi! Can you tell me phenotypic distance for each of these compounds?
1. Cc1ccc2c(c1)C1(CCN(CCc3nc(-c4ccccc4)oc3C)CC1)OC(=O)N2
2. COC(=O)C1=C(C)NC(C)=C(C(=O)OCC(C)C)C1c1ccccc1[N+](=O)[O-] (stereo not drawn)

Response:
[0.605, 0.976]

Quick one: give me phenotypic distance for each item below, same order please.
1. COc1cc2c(cc1-c1c(C)noc1C)ncc1[nH]c(=O)n([C@H](C)c3ccccn3)c12
2. CN(C)C(=O)Oc1ccc[n+](C)c1 [Pyridostigmine iodide]
3. CN1C(=O)OC(C)(C)C1=O
4. Cc1nc2ccccn2c(=O)c1CCN1CCC(C(=O)c2ccc(F)cc2)CC1
5. CC[N+](CC)(CC)CCOc1ccc(/C=C/c2ccccc2)cc1
6. NCc1ccccc1CC(=O)N[C@@H]1C(=O)N2C(C(=O)O)=C(CSc3nnnn3CC(=O)O)CS[C@H]12 [Ceforanide]

Response:
1. 0.725
2. 0.996
3. 0.402
4. 0.266
5. 1.83
6. 0.855

Data origin, for the record: the supplement of paper PMC13207355
